// reported Kd per item
target: fIL, fluorescently labelled H14 foldamer IL; test: fluorescence polarisation; direct FP: S100 protein diluted in 50 nM labeled foldamer, 20 mM HEPES pH 7.5, 150 mM NaCl, 1 mM CaCl2, 0.5 mM TCEP, 0.01% Tween20; quadratic fit (ProFit); detection threshold Kd 1 mM

INSERT INTO assay_data (binder, val) VALUES
  ('S100A14 (natural protein) MGQCRSANAEDAQEFSDVERAIETLIKNFHQYSVEGGKETLTPSELRDLVTQQLPHLMPSNCGLEEKIANLGSCNDSKLEFRSFWELIGEAAKSVKLERPVRGH', '> 1000 µM');

# ---- query binder ----
Prompt: Could you tell me which Kd is on file for S100A13 (natural protein) MAAEPLTELEESIETVVTTFFTFARQEGRKDSLSVNEFKELVTQQLPHLLKDVGSLDEKMKSLDVNQDSELKFNEYWRLIGELAKEIRKKKDLKIRKK ?
Completion: > 1000 µM

Values from paper PMC8991199
